This collection of values is drawn from PubChem BioAssay (NCI).

Tested on: OVCAR-8 ovarian
Test: NCI tumour cell line growth inhibition, 48 h
Recorded TGI values for a group of compounds are listed next.

Solved cases below.
# Compound, TGI
records = [
    ("CC(=O)Oc1c(-c2ccccc2)sc2ccccc12", "> 100 µM"),
    ("O=c1ccn(C2OC(CO)C(O)C2F)c(=O)n1Cc1ccccc1 (stereo not drawn)", "> 100 µM"),
]

**Q:** Recorded TGI for CCOC(=O)c1nc2ccc(C(F)(F)F)cc2nc1Nc1ccc(Cl)c(Cl)c1 , please?
**A:** > 100 µM

---

Test system: BT-549 breast
Test: NCI tumour cell line growth inhibition, 48 h
Recorded TGI values for a group of compounds are listed next.

Solved cases below.
# Compound, TGI
data = [
    ("COc1cc(/C=N/Nc2ncnc3c2cnn3-c2ccccc2)ccc1O", "> 25 µM"),
    ("Nc1[nH]nc2nc3ccccc3nc12", "> 100 µM"),
    ("O=C(/C=C(\\S/C=C(/c1ccccc1)N1CCn2c(C(=O)c3ccccc3)c(C(=O)c3ccccc3)c(C(=O)c3ccccc3)c21)C(=O)c1ccccc1)c1ccccc1", "> 10 µM"),
]

**Q:** Recorded TGI for Clc1cccc(NN=Nc2ccc(-c3nc4ccccc4s3)cc2)c1 , please?
**A:** > 100 µM

**Q:** Recorded TGI for O=C(N=c1ccc2nc(=O)[nH]n(O)c-2c1)C(F)(F)F , please?
**A:** > 100 µM

**Q:** Recorded TGI for S=c1[nH]n2c(CCCCCCCCc3nnc4sc(=S)[nH]n34)nnc2s1 , please?
**A:** > 100 µM

**Q:** Recorded TGI for OCCN(/N=C\c1ccc2ccccc2c1)C1=NCCN1 , please?
**A:** > 100 µM

**Q:** Recorded TGI for C/C=C1\CN(C(=O)OC(C)(C)C)C1C(=O)OC(C)(C)C (configuration not stated) , please?
**A:** > 100 µM

**Q:** Recorded TGI for COC(=O)c1c(O)ccc2[nH]c3c(O)c4ccccc4cc3c12 , please?
**A:** > 100 µM

**Q:** Recorded TGI for Nc1nc([Se])c2ncn(C3OC(CO)C(O)C3O)c2n1 (configuration not stated) , please?
**A:** > 100 µM

**Q:** Recorded TGI for COc1ccc2c(c1)nc(C(=O)c1ccco1)c(C(F)(F)F)[n+]2[O-] , please?
**A:** > 100 µM

**Q:** Recorded TGI for COc1ccc(C/C(=C(\C)c2ccc(OCCN3CCCC3)cc2)c2ccc(OCCN3CCCC3)cc2)cc1 , please?
**A:** 3.25 µM

**Q:** Recorded TGI for N=c1c2c(=S)n(-c3ccccc3)c(=S)n(-c3ccccc3)c2nc(SCCN2CCCC2)n1-c1ccccc1 , please?
**A:** 5.13 µM

**Q:** Recorded TGI for CC(C)=CCc1[nH]c2ccccc2c1C1=C(O)C(=O)C(c2c(CC=C(C)C)[nH]c3ccccc23)=C(O)C1=O , please?
**A:** 1.59 µM

**Q:** Recorded TGI for CCCCCCCCCCCCCC[N+](C)(C)CCCCCCCCCCCCCC , please?
**A:** 5.47 µM
